Experimental system: Serotonin 2 (5-HT2) receptor (Homo sapiens, UniProt P41595+P28223+P28335)
Method: Displacement of [3H]ketanserin from 5-hydroxytryptamine 2 receptor
Type: protein assay
This listing pairs compounds with measured Ki.
Express your answer as a number followed by its unit.

Sample answers from the record:
C(=C\c1ccccc1)/CNC1CCN(Cc2ccccc2)CC1.O=C(O)/C=C/C(=O)O :: 4600 nM
CN(CC#Cc1ccccc1)C1CCN(Cc2ccccc2)CC1.O=C(O)/C=C/C(=O)O :: 320 nM
CN(C/C=C/c1ccccc1)C1CCN(Cc2ccccc2)CC1.O=C(O)/C=C/C(=O)O :: 840 nM
O=C(/C=C/c1ccccc1)NC1CCN(Cc2ccccc2)CC1.O=C(O)/C=C/C(=O)O :: 100 nM
C(#Cc1ccccc1)CN(c1ccccc1)C1CCN(Cc2ccccc2)CC1.O=C(O)/C=C/C(=O)O :: 280 nM

Shifting focus to the compound that follows.
Exam item: Item CN(C(=O)C#Cc1ccccc1)C1CCN(Cc2ccccc2)CC1.O=C(O)/C=C/C(=O)O : provide Ki
Marked response: 1700 nM
